Below: a set of entries, each annotated with reported IC50.
TEST TARGET: μ-receptor (Cavia porcellus)
Construct: tritiated DAGO (DAMGO) displacement
Sequence (A0ACM8Q262 1-400): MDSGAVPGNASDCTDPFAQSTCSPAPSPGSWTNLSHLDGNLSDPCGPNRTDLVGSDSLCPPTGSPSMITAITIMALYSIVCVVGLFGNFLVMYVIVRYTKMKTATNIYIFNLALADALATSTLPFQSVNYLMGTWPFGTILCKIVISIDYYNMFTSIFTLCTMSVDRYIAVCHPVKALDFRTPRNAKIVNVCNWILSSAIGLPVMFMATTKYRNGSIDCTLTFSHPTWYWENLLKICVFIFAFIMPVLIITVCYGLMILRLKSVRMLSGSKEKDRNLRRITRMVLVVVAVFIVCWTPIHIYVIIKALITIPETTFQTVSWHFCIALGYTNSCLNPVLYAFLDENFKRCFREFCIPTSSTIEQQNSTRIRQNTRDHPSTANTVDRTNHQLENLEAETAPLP
Parameters: species or system guinea pig
CONDITIONS USED: read-out: Binding to the receptors (IC50, nM) μ
Counter-ions that a name gives are not always drawn.
ASSAY ENDPOINT: IC50 (nM)

1. O=C([C@@H]1CCc2cc(Cl)c(Cl)cc21)N1CCSC[C@@H]1CN1CCCC1: 12000
2. O=C1CC[C@H](C(=O)N2CCSC[C@H]2CN2CCCCC2)c2cc(Cl)c(Cl)cc21 [Example 3, hydrochloride]: 1800
3. O=C([C@H]1CCc2cc(Cl)c(Cl)cc21)N1CCSC[C@@H]1CN1CCCC1: 15000
4. O=C([C@@H]1CCc2cc(Cl)c(Cl)cc21)N1CCSC[C@H]1CN1CCCC1: 32000
5. O=C1C[C@H](C(=O)N2CCSC[C@H]2CN2CCCC2)c2cc(Cl)c(Cl)cc21 [Example 2, hydrochloride]: 330
6. O=C([C@H]1CCc2cc(Cl)c(Cl)cc21)N1CCSC[C@H]1CN1CCCC1 [Example 1, hydrochloride]: 300

The measured values listed here are drawn from patent US5679674A.
